# credit: patent US20210188980A1

- tested-system: T1, human PD-1 expressed on cells (human, UniProt Q15116 25-288)
- T1 construct: whole, on cells; also called CHO-K1/huPD-1; CHO-K1-hPD-1 cells
- T1 sequence (Q15116 25-288): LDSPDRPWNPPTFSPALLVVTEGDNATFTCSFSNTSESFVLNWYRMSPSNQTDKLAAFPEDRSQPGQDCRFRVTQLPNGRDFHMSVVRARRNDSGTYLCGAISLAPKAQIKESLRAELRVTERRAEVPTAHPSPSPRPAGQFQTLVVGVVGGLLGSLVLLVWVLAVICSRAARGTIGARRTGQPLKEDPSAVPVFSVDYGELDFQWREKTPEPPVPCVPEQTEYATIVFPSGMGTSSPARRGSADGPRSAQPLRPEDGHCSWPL
- assay-summary: cell RBA FACS; competitor PD-L2/Fc
Items are presented alongside their recorded pIC50.
As a rule, pIC50 stands for the negative log10 of the concentration, concentration in M.

Examples from the recorded data:
INSERT INTO assay_data (binder, measured_attribute, measured_result) VALUES
  ('HumAb713-8 (antibody, human IgG1, kappa, L234A L235A, V domains shown, humanized mAb713; also called HurnAb713-8) VH: EVQLVESGGGLVQPGGSLRLSCAASGFTSSDYGMHWVRQAPGKGLEWVAYISSGSYTIYYADTVKGRFTISRDNAKNSLYLQMNSLRDEDTAVYYCAKRGGSSHVNVMDYWGQGTTVTVSS VL: DIQMTQSPSSLSASVGDRVTITCKASDHINNWLAWYQQKPGKAPKLLIYGATSLETGVPSRFSGSGSGTDYTFTISSLQPEDIATYYCQQYWSPPYTFGGGTKVEIKR', 'pIC50', 8.72),
  ('HumAb713-14 (antibody, human IgG1, kappa, L234A L235A, V domains shown, humanized mAb713) VH: EVQLVESGGGLVQPGGSLRLSCAASGFTFSDYGMHWVRQAPGKGLEWVSYISSGSYTIYYADTVKGRFTISRDNAKNSLYLQMNSLRDEDTAVYYCAKRGGSSHVNVMDYWGQGTTVTVSS VL: DIQMTQSPSSLSASVGDRVTITCKASDHINNWLAWYQQKPGKAPKLLISGATSLETGVPSRFSGSGSGKDYTFTISSLQPEDIATYYCQQYWSPPYTFGGGTKVEIKR', 'pIC50', 8.84),
  ('HumAb713-3 (antibody, human IgG1, kappa, L234A L235A, V domains shown, humanized mAb713; also called HurnAb713-3) VH: EVQLVESGGGLVQPGGSLRLSCAASGFTSSDYGMHWVRQAPGKGLEWVSYISSGSYTIYYADTVKGRFTISRDNAKNSLYLQMNSLRDEDTAVYYCAKRGGSSHVNVMDYWGQGTTVTVSS VL: DIQMTQSPSSLSASVGDRVTITCKASDHINNWLAWYQQKPGKAPKLLIYGATSLETGVPSRFSGSGSGTDFTFTISSLQPEDIATYYCQQYWSPPYTFGGGTKVEIKR', 'pIC50', 8.91);

## Input What measured pIC50 goes with HumAb713-16 (antibody, human IgG1, kappa, L234A L235A, V domains shown, humanized mAb713) VH: EVQLVESGGGLVQPGGSLRLSCAASGFTSSDYGMHWVRQAPGKGLEWVAYISSGSYTIYYADTVKGRFTISRDNAKNSLYLQMNSLRDEDTAVYYCAKRGGSSHVNVMDYWGQGTTVTVSS VL: DIQMTQSPSSLSASVGDRVTITCKASDHINNWLAWYQQKPGKAPKLLISGATSLETGVPSRFSGSGSGKDYTFTISSLQPEDIATYYCQQYWSPPYTFGGGTKVEIKR ?
## Output 8.79

## Input Quick check: pIC50 of HumAb713-5 (antibody, human IgG1, kappa, L234A L235A, V domains shown, humanized mAb713) VH: EVQLVESGGGLVQPGGSLRLSCAASGFTFSDYGMHWVRQAPGKGLEWVSYISSGSYTIYYADTVKGRFTISRDNAKNSLYLQMNSLRDEDTAVYYCARRGGSSHVNVMDYWGQGTTVTVSS VL: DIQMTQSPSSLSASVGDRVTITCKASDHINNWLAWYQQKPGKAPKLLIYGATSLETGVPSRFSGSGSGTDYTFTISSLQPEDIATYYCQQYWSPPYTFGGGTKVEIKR ?
## Output 8.53
